B1: ZER1 (parent)
chain: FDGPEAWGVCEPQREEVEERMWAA

# Variants of: B1
# assay_text: protein stability index of a GFP-peptide fusion (GPS, HEK-293T) (PSI 1-6); higher = more stable;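 note: lentivirally expressed fusions sorted by FACS into six bins by GFP to DsRed ratio, PSI derived from sequencing read proportions per bin multiplied by bin number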
# condition_context: c terminus: a fixed tail appended
readout_type: protein stability index
Please reply with the number alone, leaving off any unit.

Prompt line: Param item = V9H ; retrieve measured protein stability index.
Response line: 3.18

Prompt line: Repeat for the following variant: M21E
Response line: 3.56

Prompt line: G3W , same question.
Response line: 2.12

Prompt line: What about this variant? E11N
Response line: 1.83

Prompt line: Now give it for P12D too.
Response line: 2.88

Prompt line: Then this variant: A23S
Response line: 2.62

Prompt line: Would you mind doing E19A as well?
Response line: 2.68

Prompt line: Now consider P12L and answer again.
Response line: 2.47

Prompt line: Follow-up item: A23L
Response line: 2.23

Prompt line: Then what about the variant E19N ?
Response line: 2.4

Prompt line: Now this one: A6H
Response line: 2.38

Prompt line: Then this variant: P4H
Response line: 1.79

Prompt line: Same question for P12R please.
Response line: 3.53

Prompt line: Another: E16P
Response line: 2.04

Prompt line: And W7T ?
Response line: 4.69

Prompt line: Next variant up: Q13H
Response line: 2.44

Prompt line: // query: A24V
Response line: 2.53

Prompt line: Cool, now G8L
Response line: 3.64

Prompt line: Follow-up item: E5S
Response line: 2.61

Prompt line: E11M , same question.
Response line: 3.24

Prompt line: Then this variant: E16L
Response line: 1.62

Prompt line: Moving on to W7K
Response line: 4.81
